Test system: EKVX NSCLC
Experiment: NCI tumour cell line growth inhibition, 48 h
The entries below come with measured TGI values attached.

Compound	Measure name	Endpoint value
CCn1c(-c2nonc2N)nc2c(C#CCN)ncc(OCCCN)c21	TGI	> 25 µM
CCN(CC)CCn1c2cc3c(cc2c(=O)c2cccnc21)OCCO3	TGI	> 10 µM
Nc1ccccc1Nc1ccccc1C(=O)[O-].Nc1ccccc1Nc1ccccc1C(=O)[O-].[Cu+2]	TGI	> 100 µM
Cc1cc2nc3c4cc(Cl)ccc4n(CCN(C)C)c3nc2cc1C	TGI	6.77 µM
CC12CC(c3ccccc3O1)C(C(=O)Nc1ccc(F)cc1)C(=O)N2 (stereo not given)	TGI	> 100 µM
Cc1c(Cl)ccc2c(=O)c3cccc(CC(=O)O)c3oc12	TGI	> 100 µM
O=C(Nc1ccc(I)cc1C(=O)NCCO)c1cccs1	TGI	> 100 µM
CCOC(=O)C1=C(C)N(c2ccccc2)C2=C(C(=O)N(c3ccccc3)C2c2ccccc2)C1c1ccccc1 (stereo not given)	TGI	> 100 µM
Nc1n[nH]c2ccc([C@@H]3Nc4ccc5[nH]ncc5c4[C@H]4[C@H]5CCC(C5)[C@H]43)cc12	TGI	> 100 µM

Please examine the following record next.
Qu. Could you share which TGI value was measured for COC(=O)C1OC(O[C@H]2CCC3(C)C(CCC4(C)C3CC=C3C5CC(C)(C)CCC5(C(=O)O)CC[C@]34C)C2(C)C)C(O)C(OC2OC(CO)C(O)C(O)C2O)C1O (stereo not given in full) ?
Ans. 12.9 µM

Data origin, for the record: PubChem BioAssay (NCI)
